From: PubChem BioAssay (EPA / NIEHS)

read-out: Fatty acid synthase (Homo sapiens) (UniProt P49327); assay: LTEA_HepaRG_FASN: Life Technologies and Expression Analysis (LTEA) Assay for Fatty Acid Synthase (FASN) using HepaRG (AID 2283448); conditions: mRNA level, 48 h; actives raise or lower the signal
Sequence (P49327 whole entry, looked up): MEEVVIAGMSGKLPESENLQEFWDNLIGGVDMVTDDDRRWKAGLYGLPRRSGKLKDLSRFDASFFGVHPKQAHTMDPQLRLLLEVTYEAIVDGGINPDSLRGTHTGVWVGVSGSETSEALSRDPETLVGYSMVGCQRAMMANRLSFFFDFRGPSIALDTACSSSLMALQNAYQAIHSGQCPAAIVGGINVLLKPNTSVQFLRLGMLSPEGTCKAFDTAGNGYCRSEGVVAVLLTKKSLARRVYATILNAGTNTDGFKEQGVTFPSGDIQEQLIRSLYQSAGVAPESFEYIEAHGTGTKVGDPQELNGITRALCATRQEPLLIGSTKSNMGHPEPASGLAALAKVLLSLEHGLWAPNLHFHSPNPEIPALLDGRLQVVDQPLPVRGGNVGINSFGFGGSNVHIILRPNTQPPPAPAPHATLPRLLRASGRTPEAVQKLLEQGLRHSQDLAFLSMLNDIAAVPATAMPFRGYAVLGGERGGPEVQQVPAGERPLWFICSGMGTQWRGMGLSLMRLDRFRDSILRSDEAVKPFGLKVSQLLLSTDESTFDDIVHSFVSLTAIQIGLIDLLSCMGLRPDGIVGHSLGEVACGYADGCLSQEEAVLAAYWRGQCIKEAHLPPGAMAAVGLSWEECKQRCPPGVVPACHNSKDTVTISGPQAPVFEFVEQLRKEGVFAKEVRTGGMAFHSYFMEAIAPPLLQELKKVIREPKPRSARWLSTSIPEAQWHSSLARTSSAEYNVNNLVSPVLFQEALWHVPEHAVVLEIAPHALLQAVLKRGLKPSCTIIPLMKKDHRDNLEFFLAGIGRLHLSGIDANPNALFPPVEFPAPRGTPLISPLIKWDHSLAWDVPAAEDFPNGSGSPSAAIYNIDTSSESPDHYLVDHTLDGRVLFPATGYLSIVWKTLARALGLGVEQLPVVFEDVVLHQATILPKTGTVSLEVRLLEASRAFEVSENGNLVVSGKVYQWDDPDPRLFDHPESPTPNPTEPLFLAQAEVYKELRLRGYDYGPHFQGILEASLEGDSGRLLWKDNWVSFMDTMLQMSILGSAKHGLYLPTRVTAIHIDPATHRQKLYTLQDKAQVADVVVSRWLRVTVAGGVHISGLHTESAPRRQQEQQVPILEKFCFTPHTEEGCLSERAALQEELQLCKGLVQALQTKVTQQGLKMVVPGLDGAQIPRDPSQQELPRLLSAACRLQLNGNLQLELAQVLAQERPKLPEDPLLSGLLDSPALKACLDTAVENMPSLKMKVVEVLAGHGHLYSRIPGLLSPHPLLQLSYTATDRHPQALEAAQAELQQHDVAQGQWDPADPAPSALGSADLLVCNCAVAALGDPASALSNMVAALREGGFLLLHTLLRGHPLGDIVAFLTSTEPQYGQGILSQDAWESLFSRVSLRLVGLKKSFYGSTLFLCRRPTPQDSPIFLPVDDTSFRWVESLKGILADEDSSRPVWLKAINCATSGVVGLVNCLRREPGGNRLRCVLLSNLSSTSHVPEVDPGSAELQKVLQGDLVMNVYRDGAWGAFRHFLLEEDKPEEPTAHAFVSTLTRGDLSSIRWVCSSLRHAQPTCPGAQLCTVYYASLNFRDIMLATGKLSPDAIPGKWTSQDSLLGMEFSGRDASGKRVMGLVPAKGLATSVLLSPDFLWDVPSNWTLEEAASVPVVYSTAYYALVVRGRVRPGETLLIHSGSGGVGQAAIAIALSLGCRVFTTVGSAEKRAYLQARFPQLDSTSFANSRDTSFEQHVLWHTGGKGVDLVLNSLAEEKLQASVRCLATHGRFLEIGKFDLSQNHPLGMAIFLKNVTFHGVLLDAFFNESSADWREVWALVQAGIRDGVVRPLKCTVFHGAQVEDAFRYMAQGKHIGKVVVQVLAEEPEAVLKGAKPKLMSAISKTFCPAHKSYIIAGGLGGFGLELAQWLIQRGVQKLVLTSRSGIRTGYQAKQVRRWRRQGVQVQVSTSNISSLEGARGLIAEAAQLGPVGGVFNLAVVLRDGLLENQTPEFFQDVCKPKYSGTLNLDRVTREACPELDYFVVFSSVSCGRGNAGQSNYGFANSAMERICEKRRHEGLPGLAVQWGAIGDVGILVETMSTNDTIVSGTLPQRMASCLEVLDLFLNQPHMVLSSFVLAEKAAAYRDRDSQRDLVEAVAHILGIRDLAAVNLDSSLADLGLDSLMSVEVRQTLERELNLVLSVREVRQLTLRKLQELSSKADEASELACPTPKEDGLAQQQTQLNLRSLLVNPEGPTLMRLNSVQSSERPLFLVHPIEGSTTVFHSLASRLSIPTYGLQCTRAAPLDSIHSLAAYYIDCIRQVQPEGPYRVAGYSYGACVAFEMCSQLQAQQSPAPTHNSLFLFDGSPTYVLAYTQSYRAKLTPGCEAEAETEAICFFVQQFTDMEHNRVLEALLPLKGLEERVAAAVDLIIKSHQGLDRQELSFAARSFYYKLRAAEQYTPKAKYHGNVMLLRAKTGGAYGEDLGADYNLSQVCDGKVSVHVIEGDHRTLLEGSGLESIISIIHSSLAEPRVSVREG
Active and inactive are the calls of the source. How the source made its calls: active means hit-call score of the fitted dose curve at least 0.9, where 1 is the maximum; inactive means score below 0.9.
Outcomes you can answer with include only these: yes (1) = active, no (0) = inactive

Here are 5 compounds together with their reported answers.
query_smiles: O=C(O)C(F)(F)C(F)(F)C(F)(F)C(F)(F)C(F)(F)C(F)(F)C(F)(F)C(F)(F)C(F)(F)F
category: yes (1)
--
query_smiles: Cc1ccccc1CO[C@@H]1C[C@@]2(C(C)C)CC[C@]1(C)O2
category: no (0)
--
query_smiles: CCC(C)(CC)c1cc(NC(=O)c2c(OC)cccc2OC)on1
category: yes (1)
--
query_smiles: CCOP(=S)(OCC)SCSC(C)(C)C
category: no (0)
--
query_smiles: Cc1ccccc1O
category: no (0)

*Q* For Nn1cnnc1 , which call appears in the assay record?
*A* no (0)

*Q* For Cc1cccc([N+](=O)[O-])c1 , which call appears in the assay record?
*A* no (0)

---

assay: BSK_3C_TissueFactor: BioMAP Diversity Plus: 3C Assay for Tissue Factor Biomarker Activity (AID 2282997); conditions: BioMAP 3C HUVEC, tissue factor biomarker readout; actives raise or lower the signal
Active and inactive are the calls of the source. The calls were made as follows: active = hit-call score of the fitted dose curve at least 0.9, where 1 is the maximum; inactive = score below 0.9.
Outcomes you can answer with include only these: 1 (yes) = active, 0 (no) = inactive

molecule: Cc1ccccc1O
category: 0 (no)

molecule: Cc1ccccc1CO[C@@H]1C[C@@]2(C(C)C)CC[C@]1(C)O2
category: 0 (no)

molecule: C1CC2OC2CC1C1CO1 (stereo unspecified)
category: 0 (no)

*Q* For Cc1cc(-c2ccc(N)c(C)c2)ccc1N , which call appears in the assay record?
*A* 0 (no)

*Q* For Cc1cccc(C)c1N , which call appears in the assay record?
*A* 0 (no)

*Q* For Clc1ccc(C(Cl)(Cl)Cl)cc1 , which call appears in the assay record?
*A* 0 (no)

*Q* For CN(C)CCO , which call appears in the assay record?
*A* 0 (no)

*Q* For O=C(N[C@H]1CN2CCC1CC2)c1cc2ccoc2cn1 , which call appears in the assay record?
*A* 0 (no)

*Q* For CC(C)C(=O)OCC(C)(C)C(OC(=O)C(C)C)C(C)C (stereo unspecified) , which call appears in the assay record?
*A* 0 (no)

*Q* For CC(C)(O)C(=O)Nc1ccc([N+](=O)[O-])c(C(F)(F)F)c1 , which call appears in the assay record?
*A* 0 (no)

---

target: human Thromboxane A2 Receptor (TXA2), TBXA2R (gene 6915); experiment: NVS_GPCR_hTXA2: NovaScreen (NVS) G Protein-Coupled Receptor Assay for human Thromboxane A2 Receptor (TXA2) (AID 2283282);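 further: actives reduce bound radioligand signal relative to DMSO baseline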
Results filed as inconclusive are left out. The source made the active and inactive calls. Rule for the calls: active = hit-call score of the fitted dose curve at least 0.9, where 1 is the maximum; inconclusive = response in the unintended direction; inactive = score below 0.9.
Outcomes you can answer with include only these: true (1) for active, false (0) for inactive

Here are 3 compounds together with their reported answers.
query_smiles: O=C(O)C(F)(F)C(F)(F)C(F)(F)C(F)(F)C(F)(F)C(F)(F)C(F)(F)C(F)(F)C(F)(F)F
category: true (1)
//
query_smiles: O=S(=O)(O)C(F)(F)C(F)(F)C(F)(F)C(F)(F)C(F)(F)C(F)(F)F
category: true (1)
//
query_smiles: CCCCCCCCCC[N+](C)(C)CCCCCCCCCC
category: true (1)

*Q* For CCOC(=O)C(O)(c1ccc(Cl)cc1)c1ccc(Cl)cc1 , which call appears in the assay record?
*A* false (0)

*Q* For O=C(O)C(F)(F)C(F)(F)C(F)(F)C(F)(F)C(F)(F)C(F)(F)C(F)(F)C(F)(F)F , which call appears in the assay record?
*A* true (1)

---

read-out: matrix metalloproteinase-3 (MMP3), MMP3 (gene 4314); experiment: LTEA_HepaRG_MMP3: Life Technologies and Expression Analysis (LTEA) Assay for matrix metalloproteinase-3 (MMP3) using HepaRG (AID 2283519); settings: mRNA level, 48 h; actives raise or lower the signal
The source made the active and inactive calls. The calls were made as follows: active = hit-call score of the fitted dose curve at least 0.9, where 1 is the maximum; inactive = score below 0.9.
Outcomes you can answer with include only these: active, inactive

Here are 5 compounds together with their reported answers.
query_smiles: CC(C)(O)C(=O)Nc1ccc([N+](=O)[O-])c(C(F)(F)F)c1
category: active

query_smiles: Nc1ccc(-c2ccc(N)cc2)cc1
category: inactive

query_smiles: ClC(Cl)=C(c1ccc(Cl)cc1)c1ccc(Cl)cc1
category: inactive

query_smiles: CN(C)c1nc(=O)n(C2CCCCC2)c(=O)n1C
category: inactive

query_smiles: CCOP(=S)(OCC)SCSC(C)(C)C
category: inactive

*Q* For Cc1cc(O)ccc1Cl , which call appears in the assay record?
*A* inactive

*Q* For O=C(O)C(F)(F)C(F)(F)C(F)(F)C(F)(F)C(F)(F)C(F)(F)C(F)(F)C(F)(F)C(F)(F)F , which call appears in the assay record?
*A* inactive

---

read-out: Lipoprotein lipase (LPL), LPL (gene 4023); assay: LTEA_HepaRG_LPL: Life Technologies and Expression Analysis (LTEA) Assay for Lipoprotein lipase (LPL) using HepaRG (AID 2283515); details: mRNA level, 48 h; actives raise or lower the signal
The source made the active and inactive calls. Rule for the calls: active = hit-call score of the fitted dose curve at least 0.9, where 1 is the maximum; inactive = score below 0.9.
Outcomes you can answer with include only these: yes = active, no = inactive

Here are 2 molecules together with their reported answers.
query_smiles: Cc1ccccc1CO[C@@H]1C[C@@]2(C(C)C)CC[C@]1(C)O2
category: no

query_smiles: Cc1cccc(C)c1N
category: no

*Q* For Cc1cc(O)ccc1Cl , which call appears in the assay record?
*A* no

*Q* For Oc1c(Cl)c(Cl)c(Cl)c(Cl)c1Cl , which call appears in the assay record?
*A* yes

*Q* For Cc1ccc(O)c(C)c1 , which call appears in the assay record?
*A* no

*Q* For CO/C=C(/C(=O)OC)c1ccccc1COc1cccc(C(F)(F)F)n1 , which call appears in the assay record?
*A* yes

*Q* For O=C(N[C@H]1CN2CCC1CC2)c1cc2ccoc2cn1 , which call appears in the assay record?
*A* no

---

tested on: frog Estrogen Receptor (ESR2), gene 100174814; assay: ATG_frER2_XSP1: Attagene TRANS-FACTORIAL Multi-Species (XSP1) HepG2 Assay for frog Estrogen Receptor (ESR2) (AID 2283774)
Records with an inconclusive call do not appear. The source made the active and inactive calls. How the source made its calls: active means hit-call score of the fitted dose curve at least 0.9, where 1 is the maximum; inconclusive means response in the unintended direction; inactive means score below 0.9.
Outcomes you can answer with include only these: active, inactive

compound: Clc1ccc(C(c2ccccc2Cl)C(Cl)(Cl)Cl)cc1 (centres undefined)
category: active

*Q* For ClC(Cl)=C(c1ccc(Cl)cc1)c1ccc(Cl)cc1 , which call appears in the assay record?
*A* active

*Q* For CC(C)(c1ccccc1)c1ccc(O)cc1 , which call appears in the assay record?
*A* active

*Q* For CC(C)(O)C(=O)Nc1ccc([N+](=O)[O-])c(C(F)(F)F)c1 , which call appears in the assay record?
*A* inactive

---

read-out: CYP4A11 (gene 1579); assay: LTEA_HepaRG_CYP4A11: Life Technologies and Expression Analysis (LTEA) Assay for CYP4A11 using HepaRG (AID 2283486); settings: mRNA level, 48 h; actives raise or lower the signal
Calls of active or inactive are those of the source. The calls were made as follows: active = hit-call score of the fitted dose curve at least 0.9, where 1 is the maximum; inactive = score below 0.9.
Outcomes you can answer with include only these: true (1) for active, false (0) for inactive

compound: C[C@]12CCC(=O)C=C1CC[C@@H]1[C@@H]2CC[C@@]2(C)[C@H]1CC[C@]2(C)O
category: true (1)

*Q* For NS(=O)(=O)C(F)(F)C(F)(F)C(F)(F)C(F)(F)C(F)(F)C(F)(F)C(F)(F)C(F)(F)F , which call appears in the assay record?
*A* true (1)

*Q* For O=C(NC(=O)c1cc(F)c(F)cc1Cl)Nc1cc(F)ccc1N1CCC(C(=O)O)CC1 , which call appears in the assay record?
*A* true (1)

*Q* For Cc1cc2c3c(c1)C(c1ccccc1)=N[C@@H](NC(=O)c1ccncc1)C(=O)N3CC2 , which call appears in the assay record?
*A* true (1)

*Q* For CCCCCCCCCc1ccc(O)cc1 , which call appears in the assay record?
*A* true (1)

*Q* For CC1=C2C[C@H]3[C@@H](CC=C4C[C@@H](O)CC[C@@]43C)[C@@H]2CC[C@]12O[C@@H]1C[C@H](C)CN[C@H]1[C@H]2C , which call appears in the assay record?
*A* false (0)

*Q* For CN(C)c1nc(=O)n(C2CCCCC2)c(=O)n1C , which call appears in the assay record?
*A* false (0)

*Q* For CCSC(=O)N(CC)C1CCCCC1 , which call appears in the assay record?
*A* false (0)

*Q* For O=C(O)C(F)(F)C(F)(F)C(F)(F)C(F)(F)C(F)(F)C(F)(F)C(F)(F)C(F)(F)C(F)(F)F , which call appears in the assay record?
*A* true (1)

*Q* For Cc1ccccc1CO[C@@H]1C[C@@]2(C(C)C)CC[C@]1(C)O2 , which call appears in the assay record?
*A* false (0)

*Q* For Nn1cnnc1 , which call appears in the assay record?
*A* false (0)

*Q* For Cc1cccc([N+](=O)[O-])c1 , which call appears in the assay record?
*A* false (0)

*Q* For Clc1ccc(C(c2ccccc2Cl)C(Cl)(Cl)Cl)cc1 (centres undefined) , which call appears in the assay record?
*A* true (1)

*Q* For Cc1cc(-c2ccc(N)c(C)c2)ccc1N , which call appears in the assay record?
*A* false (0)
